Test system: SNB-75 CNS
assay.details: NCI tumour cell line growth inhibition, 48 h
compounds and their reported GI50

Use these answered entries as a reference point.
>  <compound>
CC(=O)c1ccc2c(c1)C1C=CCC1[C@H](c1cc3c(cc1Br)OCO3)N2 (stereo partly drawn)

>  <GI50>
500 nM

$$$$
>  <compound>
CCOC(=O)C(Cc1c[nH]c2c(N(CCO)CCO)cccc12)(NC(C)=O)C(=O)OCC

>  <GI50>
50900 nM

$$$$

Answer with the recorded GI50 of C[C@@H]1C[C@H](C)CN(S(=O)(=O)c2ccc3c(NO)c4ccc(S(=O)(=O)N5C[C@H](C)C[C@H](C)C5)cc4c(N=O)c3c2)C1 only.
123 nM

Input O=C(/C=C/C12c3ccccc3C(c3ccccc31)C1C(=O)NC(=O)C12)c1ccc(Cl)cc1Cl (stereo not drawn) , output reported GI50.
1640 nM

State its GI50: NS(=O)(=O)c1ccc(-n2nc3c(c2-c2ccc(Cl)cc2)Cc2ccccc2-3)cc1
14600 nM

Check the records and state GI50 for Cc1nc(-c2ccccc2)n2nc(NCCCN3CCOCC3)ncc12
> 11900 nM

Note down GI50 recorded for CC(=O)Oc1ccc(C23c4ccccc4C2(OC(C)=O)c2cc(OC(C)=O)ccc23)cc1 (stereo not drawn)
6490 nM

Give the reported GI50 for this compound. O=S(=O)(NCCNc1nccc(-c2c(-c3ccc(F)c(O)c3)nc3sccn23)n1)c1ccc(F)cc1
1550 nM

###

Test system: OVCAR-4 ovarian
assay.details: NCI tumour cell line growth inhibition, 48 h
Entries and their TGI values follow.

// worked examples, TGI included
>  <molecule>
NC(=S)/N=C(/c1nc2ccc(Cl)cc2[nH]c1=O)C(O)c1ccccc1Cl (stereo unspecified)

>  <TGI>
> 100 µM

$$$$
>  <molecule>
CSc1ccc(-c2cc(-c3nc4ccccc4[nH]3)no2)cc1

>  <TGI>
19.3 µM

$$$$
>  <molecule>
CCOc1ccc2[nH]c3c(C)c4ccncc4c(C)c3c2c1

>  <TGI>
2.72 µM

$$$$
>  <molecule>
CS(=O)(=O)c1nc(-c2cc3c(c(S(C)(=O)=O)n2)CCCC3)cc2c1CCCCC2

>  <TGI>
> 100 µM

$$$$
>  <molecule>
CC(=O)OC12C3C4C1C1C2C3C41OC(C)=O (stereo unspecified)

>  <TGI>
> 100 µM

$$$$

Could you now look at the following molecule, please?
Write down the reported TGI (system: OVCAR-4 ovarian) of COc1ccc2cc(/C=C/C(=O)c3ccc(Cl)cc3Cl)ccc2c1
> 100 µM

###

# TGI listing for each entry below
Test system: HL-60(TB) leukemia
assay.details: NCI tumour cell line growth inhibition, 48 h
The response must be a number in µM with no trailing unit.

# count of solved cases: 5
>  <compound>
O=C(NCCN1CCOCC1)c1cn2c(ccc3sc4ccccc4c(=O)c32)n1

>  <outcome.measure>
TGI

>  <readout.units>
µM

>  <numeric.result>
36.3

$$$$
>  <compound>
CN(Cc1cnc2nc(N)nc(N)c2n1)c1ccc(C(=O)N[C@@H](CCC(=O)O)C(=O)O)cc1

>  <outcome.measure>
TGI

>  <readout.units>
µM

>  <numeric.result>
178

$$$$
>  <compound>
CCC1CC2C(=O)N(c3ccccc3)C(=O)C2c2[nH]c3ccccc3c21 (configuration not stated)

>  <outcome.measure>
TGI

>  <readout.units>
µM

>  <numeric.result>
98

$$$$
>  <compound>
COc1ccc(NC(=O)/C(=C/c2ccccc2)C(C)=O)cc1

>  <outcome.measure>
TGI

>  <readout.units>
µM

>  <numeric.result>
17.7

$$$$
>  <compound>
c1ccc2c(c1)c1c(n2CCOCCN2CCCC2)CCCC1

>  <outcome.measure>
TGI

>  <readout.units>
µM

>  <numeric.result>
30.4

$$$$

Tell me TGI of CCc1ccc(NC(=O)NC(=O)c2ccccc2[N+](=O)[O-])cc1Oc1ncc(Cl)cn1 when tested on HL-60(TB) leukemia.
0.0247

Give TGI; test system HL-60(TB) leukemia; compound COc1ccc2c(=O)cc(-c3ccccc3)[nH]c2c1
1.19

Give TGI; test system HL-60(TB) leukemia; compound O=S(=O)(Nc1nc2ccccc2nc1Nc1ccc2ccccc2c1)c1ccccc1
68.9

Provide measured TGI on HL-60(TB) leukemia for CC[C@H](Nc1ncnc2nc[nH]c12)c1nc2cccc(F)c2c(=O)n1-c1ccccc1 please.
56.5

Using HL-60(TB) leukemia as the test system, report measured TGI of COc1ccc(/C=C/C(=O)/C=C/c2cc3ccccc3[nH]c2=O)cc1 .
17.6
